experimental_endpoint: melting point

Quote melting point reported for "CC1(C)NC(=O)N(CC#CI)C1=O" please.
118 to 126 °C

Quote melting point reported for "O=c1[nH]c2ccccc2n1CCCCCCCl" please.
80 to 84 °C

Quote melting point reported for "CCCc1nc(I)c(CO)[nH]1" please.
169 to 170 °C

Quote melting point reported for "CCc1nc(C)cn1-c1cc2c(cc1C(F)(F)F)[nH]c(=O)c1nnc(CP(=O)(O)O)n12" please.
> 300 °C

Quote melting point reported for "CC(=O)Nc1nc(CCc2ccc(NC(=N)N)cc2)c(Cc2cccc(S(C)(=O)=O)c2)s1" please.
212 to 214 °C

Quote melting point reported for CC(=O)OCC1OC(n2cc(SC#N)c(=O)[nH]c2=O)CC1(O)C(C)=O (stereo unspecified) please.
106 to 108 °C

---

Answer each item with its documented melting point.

Quote melting point reported for N#Cc1ccccc1CN1CCC(=O)C(C(c2ccc(F)cc2)c2ccc(F)cc2)C1 (centres undefined) please.
83 to 84 °C

Quote melting point reported for "Cc1ccc(NC#N)c(-c2ccccc2)c1" please.
80 °C

Quote melting point reported for CC1OC(CN(C)C(=O)Nc2nnc(S(=O)(=O)N(C)C)s2)OC1C (centres undefined) please.
133 to 134 °C

Quote melting point reported for "O=C(O)CN1CCC(OC(c2ccc(F)cc2)c2ccc(F)cc2)CC1" please.
126 to 128 °C

---

Non-standard residues stand in square brackets, D forms with d. Residues, ends and D or L forms follow the SMILES beside them. *: point of attachment. Tic = O=C(O)[C@@H]1Cc2ccccc2CN1; Abu = CC[C@H](N)C(=O)O; Cbz = O=C(OCc1ccccc1)*; tBu = CC(C)(C)*; NHBu = CCCCN*
experimental_endpoint: melting point

Quote melting point reported for "OC1CN(CCCOCCc2ccc3sccc3c2)C1" please.
60 to 62 °C

Quote melting point reported for "Cc1ccc(-c2ccc(S(C)(=O)=O)cc2)n1-c1ccc(-c2cccs2)cc1" please.
185 to 186 °C

Quote melting point reported for "COCCOC(=O)c1ccc(O)cc1" please.
90 to 93 °C

Quote melting point reported for "CC(C)c1cc(O)cc(C(C)C)c1NC(=O)CN1CCN(CCCSc2nc3ccccc3o2)CC1" please.
201 to 203 °C

Quote melting point reported for "CCCc1c(SCCCOc2ccc(C#N)cc2)ccc(C(C)=O)c1O" please.
90 to 92 °C

Quote melting point reported for COC(=O)C(Cc1ccccc1)NC(=O)C(Cc1ccc(OC(C)(C)C)cc1)NC(=O)OCc1ccccc1 (stereo not given) (Cbz-Tyr(tBu)-Phe-OMe; configuration not given here) please.
106 to 107 °C

Quote melting point reported for "O=C(O)c1cc(N=C=S)cc(N=C=S)c1" please.
125 to 127 °C

Quote melting point reported for CCCCNC(=O)[C@@H]1Cc2ccccc2CN1C(=O)[C@@H](N)CC (H-[Abu]-[Tic]-NHBu) please.
105 to 110 °C

Quote melting point reported for "Cn1cc(-c2cc(Oc3ccccc3)c(Cl)cc2F)c(=O)cc1C(F)(F)F" please.
159 to 161 °C

Quote melting point reported for "CCNC(=O)N1CCN(c2ccccc2C(C)(C)C)CC1" please.
196 to 198 °C

Quote melting point reported for "CCOC(=O)c1ccc(Cn2cnc3cnccc32)cc1" please.
156 to 157 °C

Quote melting point reported for O=C(C1CSC(c2cccnc2)N1)N1CCN(c2ncccn2)CC1 (stereo not given) please.
156 to 159 °C

Quote melting point reported for "CC(C)(C)OC(=O)C(=NOC(C)(C)C(=O)OCC[Si](C)(C)C)c1csc(N)n1" please.
83 °C

Quote melting point reported for "c1ccc2c(c1)CCC1(CCOCC1)NC2" please.
76 to 78 °C

Quote melting point reported for "COc1ccc(-c2nnsc2-c2ccccc2)cc1" please.
81.5 to 82.5 °C
